Source listed as PubChem BioAssay.

tested on: TRPC4 (mouse), co-expressed with 5HT1a in HEK293; experiment: enhancement of serotonin-evoked TRPC4 response – cell-based, second counter screen, HEK293 TRPC4/5HT1a, Fluo-4, counter-screen for TRPC4 potentiator project, confirmation (AID 434979); conditions: Fluo-4 calcium flux, at 10 µM, serotonin added at its EC20 dose
Calls of active or inactive are those of the source.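 Rule for the calls: active = signal rise over 3 SD above mean of control wells given weak agonist, in both repeats and first screen; inactive = the rest.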
Outcomes you can answer with include only these: active, inactive

# fetch the recorded call for "Cc1cc(OCC(=O)N(C(C)C)C(C)C)cc(C)c1Br" here
active

Field entry: "Cc1ccc(C(=O)O)cc1N=Cc1cc(Br)cc(Br)c1O"
inactive

Okay, and "CN(C)CCCOC(=O)c1ccc(Cl)cc1Cl" ?
active

Same read-out for "O=C(c1cc2cc(Br)cc(Br)c2oc1=O)N1CCCC1" ?
active

Item: CCOC(=O)C1C(=O)C=C(c2ccc(C)cc2)CC1c1cccc([N+](=O)[O-])c1 (stereo unspecified)
active

Lookup CN(C)C(CNC(=O)Cc1ccc([N+](=O)[O-])cc1)c1ccccc1 (stereo unspecified)
inactive

###

biological target: Short transient receptor potential channel 6 (Mus musculus) (UniProt Q61143); assay: TRPC6 opening by TRPC4 activator hits – cell-based, HEK293, membrane potential dye, duplicate, selectivity assay for TRPC4 activator project, confirmation (AID 434950); conditions: HEK293 TRPC6, membrane potential fluorescence, at 10 µM; active compounds read high
Sequence (Q61143 whole entry, looked up): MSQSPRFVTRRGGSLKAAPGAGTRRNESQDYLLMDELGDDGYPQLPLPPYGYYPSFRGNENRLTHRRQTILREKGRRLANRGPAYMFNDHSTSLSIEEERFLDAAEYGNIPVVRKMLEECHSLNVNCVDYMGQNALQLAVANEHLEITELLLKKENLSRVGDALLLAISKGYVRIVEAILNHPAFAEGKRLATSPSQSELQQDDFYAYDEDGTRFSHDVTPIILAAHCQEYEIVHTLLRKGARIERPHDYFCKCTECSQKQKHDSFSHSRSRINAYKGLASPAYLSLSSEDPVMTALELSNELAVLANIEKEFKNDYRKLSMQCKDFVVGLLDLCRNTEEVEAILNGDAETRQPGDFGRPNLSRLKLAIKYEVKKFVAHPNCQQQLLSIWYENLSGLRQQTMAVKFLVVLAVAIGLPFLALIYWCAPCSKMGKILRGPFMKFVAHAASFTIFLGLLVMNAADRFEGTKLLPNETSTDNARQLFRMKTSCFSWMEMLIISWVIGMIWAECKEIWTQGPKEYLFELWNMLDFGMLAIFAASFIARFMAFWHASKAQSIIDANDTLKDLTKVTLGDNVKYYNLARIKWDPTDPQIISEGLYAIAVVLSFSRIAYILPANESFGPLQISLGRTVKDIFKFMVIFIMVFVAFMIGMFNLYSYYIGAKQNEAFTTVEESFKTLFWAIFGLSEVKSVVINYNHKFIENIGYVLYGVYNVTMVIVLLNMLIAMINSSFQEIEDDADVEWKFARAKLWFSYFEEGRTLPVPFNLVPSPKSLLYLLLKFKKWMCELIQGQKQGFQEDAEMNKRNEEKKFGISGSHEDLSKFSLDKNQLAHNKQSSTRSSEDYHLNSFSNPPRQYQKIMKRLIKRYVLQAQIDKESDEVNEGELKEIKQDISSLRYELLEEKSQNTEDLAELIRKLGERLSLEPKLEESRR
Entries are grouped by activation into these classes: group A = under 40%, group B = from 40% up to 60%, group C = 60% and over

Which of the defined bands does the recorded activation of Cc1ccc(C)c(NC(=S)NCC(c2ccccc2)N(C)C)c1 (configuration not stated) sit within?
group B

Try this molecule next: CCOc1ccc(S(=O)(=O)Nc2cccc(C(=O)NCC(c3ccccc3)N(C)C)c2)cc1 (configuration not stated)
group B

Item: COc1ccc(C(CNC(=O)Cc2ccc(-c3ccccc3)cc2)N(C)C)cc1 (configuration not stated)
group B

Repeat with "O=C(O)c1ccc(-c2ccc(/C=N/Nc3ccc([N+](=O)[O-])cc3)o2)cc1"
group C

Okay, and Cc1ccc(NC(=O)NCC(c2ccccc2)N(C)C)cc1 (configuration not stated) ?
group A

And the next one, "CN(C)c1ccc(/C=C/C(=O)c2c(O)c3ccccc3oc2=O)cc1" ?
group C

What would you report for "Fc1ccc(-n2cc(CNCCc3cccnc3)c(-c3ccccc3Cl)n2)cc1" ?
group A

Also COc1ccc(C(=O)C2CCCN(Cc3ccc(Sc4nncn4C)o3)C2)cc1F (configuration not stated) ?
group A

Same lookup for COc1ccc(CCN(C)C(=O)C2CCCN(C3CCN(Cc4ccccc4)CC3)C2)cc1OC (configuration not stated) , please.
group B

Now try "CCCCC(=O)NC(=S)NNC(=O)c1ccc(Cl)cc1Cl" .
group A

###

target: Short transient receptor potential channel 4 (Mus musculus); assay: blockers of DAMGO-evoked TRPC4 calcium flux – cell-based, Fluo4, HEK293 TRPC4beta/mu-opioid, confirmation (AID 2636); conditions: at 10 µM
The source made the active and inactive calls.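 How the source made its calls: active means calcium signal cut by more than 3 SD below the full-agonist control yet still positive, in both repeats and the earlier primary screen; inactive means the rest.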
Assign a class; possible classes are T = active, F = inactive

Given COc1ccc(C(CNC(=O)c2cccc(Br)c2)N2CCCC2)cc1 (stereo not given) , state the outcome it received in this test.
F

Item: "CN(C)CCCNc1c2ccccc2nc2ccccc12"
T

And the next one, "CCCc1nc2oc3c(NCCCN(C)C)ncnc3c2c2c1CCCC2" ?
F

Another compound: "Cn1c(=O)cc(OCCCC(=O)NCCCN2CCN(Cc3ccccc3)CC2)c2ccccc21"
F

Another compound to look at: CC(=O)N1N=C(c2c(-c3ccccc3)c3cc(C)ccc3[nH]c2=O)CC1c1ccco1 (stereo not given)
F

Now consider "Brc1ccc(N/N=C(/N=Nc2nn[nH]n2)c2ccccc2)cc1" and answer again.
F

Repeat with "O=C(O)c1ccc(CSc2nc(-c3ccc(Cl)cc3)cc(C(F)(F)F)n2)cc1"
T

Repeat with "Clc1ccc(-c2csc3ncnc(NCCN4CCOCC4)c23)cc1"
T

Would you kindly repeat that for "Cc1ncsc1CCOC(=O)c1cccc([N+](=O)[O-])c1" ?
T

For "Clc1ccc(Cl)c(OCCCCN2CCNCC2)c1" then?
F

Try this compound too: "COc1ccc(Cc2noc(CN(C)CC3CCN(Cc4ccccc4)CC3)n2)cc1OC"
F

Next entry: "COc1ccc(C(=O)NNC(=O)CN2CCC(n3nnc4cc(C)ccc43)CC2)cc1"
F

Query "CN(CCNC(=O)c1ccc(/C=N/O)nc1)Cc1ccccc1" next
F

Try the compound Cc1ccc(Cn2c(=N)c(C(=O)NCC3CCCO3)cc3c(=O)n4ccccc4nc32)cc1 (stereo not given)
F

Try this compound too: "CCN(CC)CCOC(=O)c1cccc(Br)c1"
F

Another compound to check: "Cc1cccc(NC(=O)CSc2nnc(-c3cc(C)n(-c4ccccc4)c3C)o2)c1C"
T

Try the compound CC1CC(C)CN(CCCNC(=O)c2csc3c2CCCCC3)C1 (stereo not given)
F

Do the same for "Cc1cccc(C)c1-n1cccc1/C=C1\SC(=S)N(c2cccc(C(=O)O)c2)C1=O" please
T

Another: "Cc1cc(NC(=O)CCN2CCN(Cc3ccccc3)CC2)ccc1Br"
F

Entry to check: CCOc1c(Cl)cc(CNCC(O)c2ccccc2)cc1OC (stereo not given)
T

Try this compound too: "Cc1cc(-c2sccc2C)nc(-n2cccc2)n1"
T

How about "O=C(COc1ccc(Cl)cc1)Nc1ccc(C(=O)O)cc1NC(=O)COc1ccc(Cl)cc1" ?
T

What do you have for CCOc1cccc(CN2CCCC(C(=O)c3cccc(C(F)(F)F)c3)C2)c1O (stereo not given) ?
T

# repeat for COc1cccc(O)c1CN1CCCC(C(=O)c2cccc(C(F)(F)F)c2)C1 (stereo not given)
T

Same read-out for "O=C(COC(=O)c1nc(Cl)ccc1Cl)c1ccccc1Cl" ?
F

Another: "Cc1ccc(O)c(CNc2nc3ccccc3[nH]2)c1"
T

Also, "Clc1ccc2[nH]c3c(c2c1)CNCC3" please.
F

// query: "Cc1cc(C)cc(NC(=S)N2CCN(c3ncc(C(F)(F)F)cc3Cl)CC2)c1"
F

Param item: Clc1cc(Cl)cc(C2=NC(Cc3ccccc3)CO2)c1 (stereo not given)
F

One more compound: CC1=C(C(=O)NCc2ccccc2)C(c2cc(Br)cc(Br)c2OC(C)C)NC(=O)N1 (stereo not given)
F

Same lookup for "COC(=O)c1ccc(CSc2nc3ccccc3c(=O)n2CC(C)C)o1" , please.
T

Check "Cn1c(N2CCC(C(N)=O)CC2)nc2c1c(=O)n(Cc1ccc(Br)cc1)c(=O)n2C" too.
F

Would you kindly repeat that for "Cn1nnnc1SCCNCc1ccccc1OCc1ccc(Cl)cc1" ?
T

Then O=C(Nc1ccccc1Oc1cccnc1)C1CCCN(Cc2cccc(Cl)c2)C1 (stereo not given) ?
T

How about "Oc1c(Br)cc(Br)cc1C=Nc1ccc2[nH]ncc2c1" ?
T

Also "O=C(O)c1ccc(NC(=S)NC(=O)c2ccc(-c3ccccc3)cc2)cc1" ?
T

Try this compound too: C#Cc1ccc(CN2CCCC(C(=O)Nc3ccccc3Oc3cccnc3)C2)cc1 (stereo not given)
T

Another compound to look at: "COc1ccc(-n2cc(CNCc3cccnc3)c(-c3cccc(F)c3)n2)cc1"
F

Likewise for "C/C(=N/OCO/N=C(/C)c1ccc(F)cc1)c1ccc(F)cc1" ?
F

Queued: "CCOCCCn1cnc2c(c1=O)c1nc3ccccc3nc1n2-c1ccc(C)cc1"
F

Then this compound: N#CC1=C(N)C(C#N)(C#N)C(c2cccnc2)C2CC(c3ccccc3)CC=C12 (stereo not given)
F

Moving on to the next compound: "Cc1ccc(Sc2ccc(CO)cc2[N+](=O)[O-])cc1"
T

Same for "FC(F)(F)COc1nc(N2CCCCC2)nc(N2CCNCC2)n1"
F

Try this compound too: "COc1ccccc1N1CCc2c(C)nc3c(OC)cccc3c21"
T

Further, for "CCc1ccc(-c2nn(-c3ccccc3)cc2CSC(=N)N)cc1" ?
F

###

molecular target: Short transient receptor potential channel 6 (Mus musculus); experiment: positive modulators of mouse TRPC6 channel – HEK293 cells, membrane potential dye, duplicate, selectivity assay for TRPC4 potentiator project, confirmation (AID 434952); details: HEK293 TRPC6, membrane potential dye fluorescence, at 10 µM, maximal acetylcholine added after compound
The source made the active and inactive calls.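 How the source made its calls: active means compound raising the membrane signal above positive-control mean plus 3 SD in both repeats, and a primary screen hit; inactive means the rest.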
Thanks in advance; please answer with one of these: active, inactive

Assay result, entry "O=C1/C(=C\c2cc([N+](=O)[O-])ccc2O)SC(=S)N1Cc1ccc(Cl)cc1" — outcome?
active

Also check "O=C1NCN(c2ccccc2)C12CCN(CCCC(c1ccc(F)cc1)c1ccc(F)cc1)CC2"
inactive

Please answer likewise for "Cc1ccc(OCCn2c(C)nc3ccccc32)cc1"
inactive

Try this compound too: COC(=O)c1ccccc1NC(=O)CCC(=O)N1CC(C)Oc2ccc(C)cc21 (stereo unspecified)
inactive

And what about the compound CCN1CCCC1CNCc1ccc(Cl)cc1Cl (stereo unspecified) ?
inactive

Then what about the compound "Cc1ccc(C(C)C)c(OCCCCN2CCNCC2)c1" ?
inactive

And then "Cc1ccc2nc(C)c3c(c2c1)N(c1ccc(F)cc1)CC3" , what is it?
inactive

Input "Cc1ccc(C(=O)OCCN2CCN(c3ncc(C(F)(F)F)cc3Cl)CC2)cc1"
inactive

Check "Cc1cccc(-c2nnc(SCc3nc4ccccc4[nH]3)n2Cc2ccco2)c1" too.
inactive

Also, "CCN(CC)CCSc1nnc2c3ccccc3n(Cc3ccccc3)c2n1" please.
inactive

Please give the result for CCOC(=O)c1c(NC(=O)C2CCCO2)sc2c1CCC2 (stereo unspecified) too.
inactive
